test: Stability of metalloporphyrins to oxidative degradation (bleaching), spectrophotometric; settings: after 6 hours, in the presence of cyclophosphamide, pH 7.4, 10 μM porphyrin, 2 mM ascorbic acid, aerobic
quantity.name: remaining fraction of metalloporphyrin (%)
Numbers only, in %.

Reference set (3 entries):
| sample.smiles | remaining fraction of metalloporphyrin / % |
| --- | --- |
| C[n+]1ccccc1-c1c2nc(c(-c3cccc[n+]3C)c3ccc([n-]3)c(-c3cccc[n+]3C)c3nc(c(-c4cccc[n+]4C)c4ccc1[n-]4)C=C3)C=C2.[Fe+3] | 41 |
| C=CC1=C(C)c2cc3[n-]c(cc4[n-]c(cc5nc(cc1n2)C(C)=C5C=C)c(C)c4CCC(=O)O)c(CCC(=O)O)c3C.[Cl-].[Fe+3] | 71 |
| C[n+]1ccccc1-c1c2nc(c(-c3cccc[n+]3C)c3ccc([n-]3)c(-c3cccc[n+]3C)c3nc(c(-c4cccc[n+]4C)c4ccc1[n-]4)C=C3)C=C2.[Mn+3] | 91 |

Now consider the entry below.
Incoming: Specify reported remaining fraction of metalloporphyrin for the compound shown: `C[n+]1cccc(-c2c3nc(c(-c4ccc[n+](C)c4)c4ccc([n-]4)c(-c4ccc[n+](C)c4)c4nc(c(-c5ccc[n+](C)c5)c5ccc2[n-]5)C=C4)C=C3)c1.[Mn+3]`
Outgoing: 94
